Where do the numbers come from? From ChEMBL document CHEMBL3808394.

- target_entity: Amyloid-beta precursor protein (Homo sapiens)
- assay_procedure: Reduction in amyloid beta 40 content (unknown origin) expressed in HEK293 cells expressing APP K595N/M596L Swedish mutant at 20 uM after 24 hrs by ELISA
- Format: cell-based
measurement_name: inhibition (%)
Write the answer as a number in %, unit excluded.

Sample records with inhibition:
chemical_string | target_entity | inhibition / %
COc1cc(C[C@H]2C(=O)OC[C@@H]2Cc2ccc(OC)c(OC)c2)ccc1O | Amyloid-beta precursor protein (Homo sapiens) | 44.6
COc1ccc(C[C@H]2COC(=O)[C@@H]2Cc2ccc(OC(=O)Nc3ccc(Cl)cc3)c(OC)c2)cc1OC | Amyloid-beta precursor protein (Homo sapiens) | 66.9
COc1ccc(C[C@H]2COC(=O)[C@@H]2Cc2ccc(OC(=O)NCc3ccccc3)c(OC)c2)cc1OC | Amyloid-beta precursor protein (Homo sapiens) | 41.3
COc1ccc(Cl)cc1NC(=O)Oc1ccc(C[C@H]2C(=O)OC[C@@H]2Cc2ccc(OC)c(OC)c2)cc1OC | Amyloid-beta precursor protein (Homo sapiens) | 42.4
COc1ccc(C[C@H]2COC(=O)[C@@H]2Cc2ccc(OC(=O)NCCc3ccccc3)c(OC)c2)cc1OC | Amyloid-beta precursor protein (Homo sapiens) | 49
COc1ccc(C[C@H]2COC(=O)[C@@H]2Cc2ccc(OC(=O)Nc3cccc(Cl)c3C)c(OC)c2)cc1OC | Amyloid-beta precursor protein (Homo sapiens) | 62.8
COc1ccc(C[C@H]2COC(=O)[C@@H]2Cc2ccc(OC(=O)NC3CCCCC3)c(OC)c2)cc1OC | Amyloid-beta precursor protein (Homo sapiens) | 35.4
CCCNC(=O)Oc1ccc(C[C@H]2C(=O)OC[C@@H]2Cc2ccc(OC)c(OC)c2)cc1OC | Amyloid-beta precursor protein (Homo sapiens) | 20.3
COc1ccc(C[C@H]2COC(=O)[C@@H]2Cc2ccc(OC(=O)N(C)C)c(OC)c2)cc1OC | Amyloid-beta precursor protein (Homo sapiens) | 28.5
CNC(=O)Oc1ccc(C[C@H]2C(=O)OC[C@@H]2Cc2ccc(OC)c(OC)c2)cc1OC | Amyloid-beta precursor protein (Homo sapiens) | 29.8

For the record `COc1ccc(C[C@H]2COC(=O)[C@@H]2Cc2ccc(OC(=O)N[C@@H](C)c3ccccc3)c(OC)c2)cc1OC` , what value of inhibition is listed for Amyloid-beta precursor protein (Homo sapiens)?
70.8

For the record `COc1ccc(C[C@H]2COC(=O)[C@@H]2Cc2ccc(OC(=O)N(C)c3ccccc3)c(OC)c2)cc1OC` , what value of inhibition is listed for Amyloid-beta precursor protein (Homo sapiens)?
30

For the record `COc1ccc(NC(=O)Oc2ccc(C[C@H]3C(=O)OC[C@@H]3Cc3ccc(OC)c(OC)c3)cc2OC)cc1` , what value of inhibition is listed for Amyloid-beta precursor protein (Homo sapiens)?
52.9

For the record `CCN(CC)C(=O)Oc1ccc(C[C@H]2C(=O)OC[C@@H]2Cc2ccc(OC)c(OC)c2)cc1OC` , what value of inhibition is listed for Amyloid-beta precursor protein (Homo sapiens)?
11.9

For the record `CCNC(=O)Oc1ccc(C[C@H]2C(=O)OC[C@@H]2Cc2ccc(OC)c(OC)c2)cc1OC` , what value of inhibition is listed for Amyloid-beta precursor protein (Homo sapiens)?
36.3

For the record `COc1cccc(NC(=O)Oc2ccc(C[C@H]3C(=O)OC[C@@H]3Cc3ccc(OC)c(OC)c3)cc2OC)c1` , what value of inhibition is listed for Amyloid-beta precursor protein (Homo sapiens)?
52.8

For the record `COc1ccc(C[C@H]2COC(=O)[C@@H]2Cc2ccc(OC(=O)NC(C)C)c(OC)c2)cc1OC` , what value of inhibition is listed for Amyloid-beta precursor protein (Homo sapiens)?
21.4
